- measured target: T1, rHuman Erythropoietin R/Fc Chimera, CF (human, UniProt P19235 25-250)
- T1 construct: Bought from R&D Systems; also called EPO R; EPO R/Fc; not shown: Fc of the bought chimera
- T1 sequence (looked up): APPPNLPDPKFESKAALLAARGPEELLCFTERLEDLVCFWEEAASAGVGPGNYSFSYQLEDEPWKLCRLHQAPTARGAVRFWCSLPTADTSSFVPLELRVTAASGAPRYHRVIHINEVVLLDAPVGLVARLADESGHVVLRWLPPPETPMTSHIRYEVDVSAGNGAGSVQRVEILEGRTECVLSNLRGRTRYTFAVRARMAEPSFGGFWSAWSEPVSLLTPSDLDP
- assay overview: ECL Multispot (MSD) assay; antigen spotted on plate, Fab in solution;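 note: fab bound 1 h at 20 °C, detected by TAG-labelled antibody electrochemiluminescence, signal relative to each well's blank, ratio of 4 or more marks a hit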
Catalogue of ECL signal values

Reference set, count: 2
Specify measured ECL signal for Fab VH1-46_IGHD6-6*01_IGHJ1*01 S102A/S103P/S104F/H111F (APFF) & L6_IGKJ1*01 S28G (Fab, V domains shown, Fab made in E. coli; the variable domains were cloned into Plasmid A (CH1, His and Flag tags) and Plasmid C (kappa CL); also called APFF / S28G) VH: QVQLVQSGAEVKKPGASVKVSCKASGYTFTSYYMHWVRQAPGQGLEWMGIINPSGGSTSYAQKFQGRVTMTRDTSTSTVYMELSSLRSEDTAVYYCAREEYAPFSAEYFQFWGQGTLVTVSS VL: EIVLTQSPATLSLSPGERATLSCRASQGVSSYLAWYQQKPGQAPRLLIYDASNRATGIPARFSGSGSGTDFTLTISSLEPEDFAVYYCQQRSNWPPWTFGQGTKVEIKR . 494

Return ECL signal for the following binder: Fab VH1-46_IGHD6-6*01_IGHJ1*01 S102A/S103P/S104F/H111F (APFF) & L6_IGKJ1*01 S28T (Fab, V domains shown, Fab made in E. coli; the variable domains were cloned into Plasmid A (CH1, His and Flag tags) and Plasmid C (kappa CL); also called APFF / S28T) VH: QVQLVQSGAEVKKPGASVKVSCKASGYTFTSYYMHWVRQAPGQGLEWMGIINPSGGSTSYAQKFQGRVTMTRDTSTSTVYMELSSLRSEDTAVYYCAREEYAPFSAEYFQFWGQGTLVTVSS VL: EIVLTQSPATLSLSPGERATLSCRASQTVSSYLAWYQQKPGQAPRLLIYDASNRATGIPARFSGSGSGTDFTLTISSLEPEDFAVYYCQQRSNWPPWTFGQGTKVEIKR 380

Turning now to a further record.
State its ECL signal: Fab VH1-46_IGHD6-6*01_IGHJ1*01 S102A/S103P/S104F/H111F (APFF) & L6_IGKJ1*01 S28V (Fab, V domains shown, Fab made in E. coli; the variable domains were cloned into Plasmid A (CH1, His and Flag tags) and Plasmid C (kappa CL); also called APFF / S28V) VH: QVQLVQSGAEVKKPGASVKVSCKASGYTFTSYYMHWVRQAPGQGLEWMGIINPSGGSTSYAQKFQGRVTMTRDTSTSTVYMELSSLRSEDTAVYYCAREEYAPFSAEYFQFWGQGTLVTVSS VL: EIVLTQSPATLSLSPGERATLSCRASQVVSSYLAWYQQKPGQAPRLLIYDASNRATGIPARFSGSGSGTDFTLTISSLEPEDFAVYYCQQRSNWPPWTFGQGTKVEIKR 446
